# systemName: PDE4D2 (Homo sapiens)
# Sequence (Q08499 303-809 limits assumed): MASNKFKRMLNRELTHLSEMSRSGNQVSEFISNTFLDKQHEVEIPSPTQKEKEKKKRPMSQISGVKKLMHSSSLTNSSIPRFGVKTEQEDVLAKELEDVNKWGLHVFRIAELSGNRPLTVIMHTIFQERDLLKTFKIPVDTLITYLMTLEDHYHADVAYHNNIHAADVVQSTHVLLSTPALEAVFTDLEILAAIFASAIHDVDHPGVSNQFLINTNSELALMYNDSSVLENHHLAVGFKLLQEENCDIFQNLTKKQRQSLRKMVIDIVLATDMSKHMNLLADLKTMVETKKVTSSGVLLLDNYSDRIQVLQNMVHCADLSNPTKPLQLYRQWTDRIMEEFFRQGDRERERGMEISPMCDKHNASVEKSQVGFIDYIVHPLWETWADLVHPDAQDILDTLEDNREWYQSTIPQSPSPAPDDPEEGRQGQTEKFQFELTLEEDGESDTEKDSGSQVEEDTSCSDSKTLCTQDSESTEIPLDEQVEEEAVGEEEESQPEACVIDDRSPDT
# assayOverview: PDE4D2 enzyme experiment (AMP-glo, cAMP substrate)
# Assay type: biochemical
# testSettings: read-out: PDE4D2 IC50 Binding
Reported pIC50 values follow for various molecules
pIC50 field: float, defined as -log10 of concentration (mol/L).

Recorded results for 5 molecules are shown here.
COc1nc2c(c3ccc(Cl)cc13)CCN(c1nc3c(c(NC4(CO)CCC4)n1)[S+]([O-])CC3)C2 (stereo not drawn) | 8.50
[O-][S+]1CCc2nc(N3CCc4cc5c(cc4C3)OCO5)nc(NC3(CO)CCC3)c21 (stereo not drawn) | 8.41
[O-][S@+]1CCc2nc(N3CC[C@@H]4c5ccc(Cl)cc5OC[C@H]4C3)nc(NC3(CO)CCC3)c21 | 8.97
Cn1ncc2c3c(cnc21)CN(c1nc2c(c(NC4(CO)CCC4)n1)[S@+]([O-])CC2)CC3 | 8.53
[O-][S+]1CCc2nc(N3CC[C@@H]4c5cccc(Cl)c5OC[C@H]4C3)nc(NC3(CO)CCC3)c21 (stereo partly drawn) | 8.53

Now, please, on to the next molecule.
Task: Given the molecule [O-][S@+]1CCc2nc(N3CCc4sc(I)cc4C3)nc(NC3(CO)CCC3)c21 , write its reported pIC50.
Result: 8.71

====

# systemName: PDE4B2 (Homo sapiens, UniProt Q07343)
# Construct: expressed in transfected cells; host or cells: Flp-In-293 (Flpin-293-PDE4B2 [sic])
# Sequence (Q07343 1-564 isoform Q07343-2): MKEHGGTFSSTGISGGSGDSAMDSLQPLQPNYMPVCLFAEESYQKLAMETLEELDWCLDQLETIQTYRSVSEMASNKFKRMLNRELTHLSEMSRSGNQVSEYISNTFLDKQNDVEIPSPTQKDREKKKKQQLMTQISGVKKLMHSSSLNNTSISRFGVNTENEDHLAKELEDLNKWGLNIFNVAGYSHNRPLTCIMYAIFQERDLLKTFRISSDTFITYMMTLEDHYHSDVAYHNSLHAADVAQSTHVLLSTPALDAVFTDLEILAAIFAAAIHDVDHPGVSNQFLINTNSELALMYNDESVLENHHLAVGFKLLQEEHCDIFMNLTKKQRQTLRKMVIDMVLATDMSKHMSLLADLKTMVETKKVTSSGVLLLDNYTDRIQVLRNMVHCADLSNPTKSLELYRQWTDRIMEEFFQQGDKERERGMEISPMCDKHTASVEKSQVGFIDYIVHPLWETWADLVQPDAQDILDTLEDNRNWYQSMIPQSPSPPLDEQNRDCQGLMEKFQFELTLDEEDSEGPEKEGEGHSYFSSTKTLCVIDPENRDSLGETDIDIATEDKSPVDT
# assayOverview: PDE4B2 enzyme experiment (AMP-glo, cAMP substrate)
# Type: biochemical
# testSettings: 10 nM
Reported PDE4B2 Enzyme Inhibition% @10 nM values follow for various compounds
Write the value in % as a bare number.

Recorded results for 3 compounds are shown here.
O=[N+]([O-])c1ccc2c(c1)CN(c1nc3c(c(NC4(CO)CCC4)n1)[S+]([O-])CC3)C2 (stereo not shown) | 70.90
[O-][S+]1CCc2nc(N3CCc4sc(Br)cc4C3)nc(NC3(CO)CCC3)c21 (stereo not shown) | 93.26
[O-][S+]1CCc2nc(N3Cc4ccc(Cl)cc4C3)nc(NC3(CO)CCC3)c21 (stereo not shown) | 72.33

Now, please, on to the next compound.
Task: Given the compound [O-][S+]1CCc2nc(N3Cc4ccc(C(F)(F)F)cc4C3)nc(NC3(CO)CCC3)c21 (stereo not shown) , write its reported PDE4B2 Enzyme Inhibition% @10 nM.
Result: 83.85

====

# systemName: PDE4B2 (Homo sapiens)
# Construct: expressed in transfected cells; host or cells: Flp-In-293 (Flpin-293-PDE4B2 [sic])
# assayOverview: PDE4B2 cell experiment (cAMP, Eu-cAMP tracer / Ulight-anti-cAMP)
# Type: cell-based
# testSettings: Flpin-293-PDE4B2 cells, 10 nM
Reported Cell Inhibition% @10 nM values follow for various compounds
Write the value in % as a bare number.

Task: Given the compound Cn1nc2c(c1Cl)CN(c1nc3c(c(NC4(CO)CCC4)n1)[S+]([O-])CC3)CC2 (stereo not drawn) [Compound 58] , write its reported Cell Inhibition% @10 nM.
Result: 15.88

====

# systemName: PDE4B2 (Homo sapiens)
# Construct: expressed in transfected cells; host or cells: Flp-In-293 (Flpin-293-PDE4B2 [sic])
# assayOverview: PDE4B2 enzyme experiment (AMP-glo, cAMP substrate)
# Assay type: biochemical
measuredParameter: pIC50
pIC50 field: float, defined as -log10 of concentration (mol/L).

[O-][S+]1CCc2nc(N3CC[C@@H]4c5cc(Cl)ccc5OC[C@H]4C3)nc(NC3(CO)CCC3)c21 (stereo partly shown) | 8.85
O=c1[nH]c2cc3c(cc2o1)CN(c1nc2c(c(NC4(CO)CCC4)n1)[S@+]([O-])CC2)CC3 | 9.22
Cn1c2c(c3ccc(Cl)cc3c1=O)CCN(c1nc3c(c(NC4(CO)CCC4)n1)[S+]([O-])CC3)C2 (stereo not shown) | 9.05
[O-][S@+]1CCc2nc(N3CCc4sc(I)cc4C3)nc(NC3(CO)CCC3)c21 | 9.00

Task: Given the molecule O=[N+]([O-])c1ccc2c(c1)CCN(c1nc3c(c(NC4(CO)CCC4)n1)[S+]([O-])CC3)C2 (stereo not shown) , write its reported pIC50.
Result: 9.26

Task: Given the molecule [O-][S+]1CCc2nc(N3CCc4cc(Cl)cc(Cl)c4C3)nc(NC3(CO)CCC3)c21 (stereo not shown) , write its reported pIC50.
Result: 9.04

Task: Given the molecule [O-][S+]1CCc2nc(N3CC[C@@H]4c5cccc(Cl)c5OC[C@H]4C3)nc(NC3(CO)CCC3)c21 (stereo partly shown) , write its reported pIC50.
Result: 8.94

Task: Given the molecule [O-][S+]1CCc2nc(N3CCc4cc(N5CC(F)C5)ccc4C3)nc(NC3(CO)CCC3)c21 (stereo not shown) , write its reported pIC50.
Result: 9.15

Task: Given the molecule COc1ccc2c(c1)CCN(c1nc3c(c(NC4(CO)CCC4)n1)[S+]([O-])CC3)C2 (stereo not shown) , write its reported pIC50.
Result: 9.01

Task: Given the molecule [O-][S+]1CCc2nc(N3CCc4cc(Cl)c(Cl)cc4C3)nc(NC3(CO)CCC3)c21 (stereo not shown) , write its reported pIC50.
Result: 9.11
